Data origin: patent US10563243B2

Assignment: determine reported % viable for the given compounds.
# Test system: mixture of Actinomyces viscosus, Lactobacillus casei, Streptococcus oralis, Fusobacterium nucleatum, and Veillnoella parvula
# testMethodNotes: Zinc/copper bioavailability assay: bacterial viability by resazurin fluorescence, oral bacterial mixture
# testSettings: Table 7; 0.05% elemental copper in deionized water
Write the answer as a number in %, unit excluded.

# input compound: [Cl][Cu][Cl] [CuCl2] ; wanted: its % viable
11.99

# input compound: [F][Cu][F] [CuF2] ; wanted: its % viable
17.82

# input compound: [O]=[Cu] [CuO] ; wanted: its % viable
78.67

# input compound: O=S(=O)([O-])[O-].[Cu+2] [CuSO4] ; wanted: its % viable
13.98
